Assay: Primary qHTS to identify inhibitors of SARS-CoV-2 cell entry (AID 1645846); also: nearly all actives have a fitted effect of over 45% in size
Details: SARS-CoV-2 pseudovirus cell entry assay, luminescence; series mostly up to 57.1 µM
Records with an inconclusive call do not appear. Active and inactive are the calls of the source. Calls follow the shape of the full dose curve.
Outcomes: class 1 (active), class 0 (inactive)

INSERT INTO results (compound, qualitative_label) VALUES
  ('c1cc(-c2sc(-c3ccncc3)c(-c3ccncc3)c2-c2ccncc2)ccn1', 'class 0'),
  ('CCN(CC)CCNC(=O)c1ccc2nc(-c3ccccc3)c(-c3ccc(CN4CCC(n5c(=O)[nH]c6ccccc65)CC4)cc3)nc2c1', 'class 1'),
  ('CN1C(=O)C[C@H](C(=O)N[C@@H](Cc2cnc[nH]2)C(=O)N2CCC[C@@H]2C(N)=O)NC1=O', 'class 0'),
  ('CN1CCN(Cc2ccc(NC(=O)Nc3ccc(Oc4cc(NC(=O)C5CC5)ncn4)cc3)cc2C(F)(F)F)CC1', 'class 1'),
  ('CCN1CCCC1=O', 'class 0'),
  ('O=c1c(-c2ccc(O)cc2)coc2cc(O)ccc12', 'class 0'),
  ('COC(=O)Nc1ccc(-c2nc(N3CCOCC3)c3cnn(C4CCN(Cc5cccnc5)CC4)c3n2)cc1', 'class 1'),
  ('Cc1cc2nc3c(=O)[nH]c(=O)nc-3n(CC(O)C(O)C(O)CO)c2cc1C (stereo not given)', 'class 0'),
  ('COc1cc2c(Nc3ccc(NC(=O)c4ccccc4)cc3)ncnc2cc1OCCCN1CCOCC1', 'class 1'),
  ('CS(=O)(=O)c1ccc(Oc2cc(F)cc(C#N)c2)c2c1[C@H](O)C(F)(F)C2', 'class 0');

---

// values below are reported activity change, negative = inhibition
Experiment: Primary qHTS to identify inhibitors of SARS-CoV-2 cell entry (AID 1645846); also: nearly all actives have a fitted effect of over 45% in size
Details: SARS-CoV-2 pseudovirus cell entry assay, luminescence; at 57.1 µM (top of the series) unless noted
Source text: Assay Provider: Wei Zheng, Ph.D. National Center for Advancing Translational Sciences, National Institute of Health, Rockville, MD. SARS-CoV-2 spike protein, within the viral envelope, mediates viral attachment and infection of host cells. The SARS-CoV-2 spike protein specifically binds to the host receptor ACE2 (Angiotensin-converting enzyme 2). […] 11. […] Read luminescence signal (Viewlux plate reader, PerkinElmer). […]
Inconclusive results are not listed.
Endpoint Name: activity change, negative = inhibition (%)

INSERT INTO assay_data (molecule, output_unit, observed_result) VALUES
  ('N[C@H](CSC(c1ccccc1)(c1ccccc1)c1ccccc1)C(=O)O', '%', -15.9),
  ('Cc1ccc(C(=O)N(CCCN)[C@@H](c2oc3cc(Cl)ccc3c(=O)c2Cc2ccccc2)C(C)C)cc1', '%', -98.4),
  ('NC(=O)Nc1sc(-c2ccc(F)cc2)cc1C(N)=O', '%', -30.6),
  ('Cc1coc2c1C(=O)C(=O)c1c-2ccc2c1CCCC2(C)C', '%', -20),
  ('CCCCCCCCCCCC(CC1OC(=O)C1CCCCCC)OC(=O)C(CC(C)C)NC=O (centres undefined)', '%', 0.438),
  ('C[C@H](NC(=O)C(=O)Nc1ccccc1C(C)(C)C)C(=O)N[C@@H](CC(=O)O)C(=O)COc1c(F)c(F)cc(F)c1F', '%', -42.2),
  ('CC[C@@](C)(Nc1ccnc(-c2c[nH]c3ncccc23)n1)C(=O)NCC(F)(F)F', '%', -38.3),
  ('Cc1cnc(-c2cc(N3CCN(C(=O)CCS(C)(=O)=O)CC3)ncc2Cl)c(C)c1', '%', -19);

---

Tested on: CP329
Assay: qHTS profiling for inhibitors of Plasmodium falciparum proliferation (AID 504749); also: nearly all actives have a fitted effect of over 60% in size
Conditions: P. falciparum in erythrocytes, SYBR Green DNA, 72 h; series mostly up to 28.7 µM
Inconclusive results are not listed. Active and inactive are the calls of the source. Calls follow the shape of the dose curve; as a rule, active = well fitted inhibition curve with a large enough effect; inconclusive = small, poorly fitted or top-dose-only effect; inactive = flat fitted curve, though single readings scatter.
Outcomes: T for active, F for inactive

INSERT INTO results (compound, qualitative_label) VALUES
  ('CCN(CC)CCO[C@H]1CC[C@@]2(C)C(=CC[C@@H]3[C@H]2CC[C@]2(C)C(=O)CC[C@H]32)C1', 'F'),
  ('CC(C)[C@@]1(NC(=O)[C@H]2CC3c4cccc5[nH]cc(c45)C[C@H]3N(C)C2)O[C@@]2(O)C3CCCN3C(=O)[C@@H](Cc3ccccc3)N2C1=O (stereo not given in full)', 'T'),
  ('C[N+](C)(C)CC(=O)[O-]', 'F'),
  ('CO[C@H]1[C@@H](O)CC(OC2[C@@H](O)CC(OC3[C@@H](O)C[C@H](OC4CC[C@@]5(C)C(CCC6C5CC(O)[C@]5(C)[C@H](C7=CC(=O)OC7)CCC65O)C4)O[C@@H]3C)O[C@@H]2C)O[C@@H]1C (stereo not given in full)', 'F'),
  ('CCN1C[C@]2(COC)[C@H](O)C[C@H](OC)[C@]34C1C([C@H](OC)[C@H]23)[C@]1(OC(C)=O)C2[C@@H](OC(=O)c3ccccc3)C(O)(C[C@H]24)[C@@H](OC)[C@@H]1O', 'F');

---

Test: qHTS assay for small molecule agonists of the antioxidant response element (ARE) signaling pathway (AID 651741); as to activation: % of control where 0% means no effect
Details: HepG2 ARE-bla reporter, beta-lactamase FRET ratio, 16 h; series mostly up to 96 µM
Results filed as inconclusive are left out. The source made the active and inactive calls. The call rests on the fitted dose curve; in most records, active means well fitted activation curve with a large enough effect in the signal ratio; inconclusive means small, poorly fitted or top-dose-only effect, or effect the other way, or a change in a side signal; inactive means flat fitted curve, though single readings scatter; the % refers to the signal ratio.
Outcomes: yes (active), no (inactive)

INSERT INTO assay_data (compound, qualitative_label) VALUES
  ('Nc1nc(N)c2nc(CNc3ccc(C(=O)NC(CCC(=O)O)C(=O)O)cc3)cnc2n1 (configuration not stated)', 'yes'),
  ('CC(=O)[C@H]1CC[C@H]2[C@@H]3CCC4=CC(=O)CC[C@]4(C)[C@H]3CC[C@]12C', 'yes'),
  ('C=CCOC(=O)c1ccccc1C(=O)OCC=C', 'no'),
  ('O=C1c2cccc(O)c2C(=O)c2c(O)cc(CO)cc21', 'yes'),
  ('CCOC(=O)c1ccccc1N', 'no'),
  ('CCOP(=S)(OCC)SCSCC', 'no'),
  ('CC(=O)/C=C/c1ccccc1', 'no');

---

Assay: Primary qHTS for inhibitors of nuclear receptor binding SET domain protein 2 (NSD2) in an RCH-ACV wild type WT cells (2C) (AID 1645877); also: nearly all actives have a fitted effect of over 70% in size
Conditions: RCH-ACV (leukaemia line) NSD2 WT (2C) viability, CellTiter-Glo, 72 h; series mostly up to 44.9 µM
Results filed as inconclusive are left out. Activity calls are given as the source filed them. Calls follow the shape of the dose curve; as a rule, active = well fitted inhibition curve with a large enough effect; inconclusive = small, poorly fitted or top-dose-only effect; inactive = no such curve, though single readings can be large or run the other way.
Outcomes: active, inactive

INSERT INTO results (compound, qualitative_label) VALUES
  ('Cc1cccc(NC(=O)c2ccc(C(F)(F)F)cc2C(=O)O)n1', 'inactive'),
  ('CC(C)(O)/C=C/C(=O)[C@](C)(O)[C@H]1[C@H](O)C[C@@]2(C)[C@@H]3CC=C4[C@@H](C[C@H](O)C(=O)C4(C)C)[C@]3(C)C(=O)C[C@]12C', 'active'),
  ('COc1ccsc1CNCC[C@@]1(c2ccccn2)CCOC2(CCCC2)C1', 'inactive'),
  ('CO[C@@H]1[C@H](O)[C@@H](O[C@@H]2C[C@H]3CC[C@@H]4C(CC[C@]5(C)[C@@H](C6=CC(=O)OC6)CC[C@]45O)[C@@]3(C)[C@H](O)C2)O[C@H](C)[C@@H]1O (some centres not stated)', 'active'),
  ('C[C@@]1(CO)[C@H](O)CC[C@@]2(C)[C@H]1CC[C@H]1C[C@@H]3C[C@@]12CC[C@]3(O)CO', 'active'),
  ('Clc1ccc([C@]23CNC[C@H]2C3)cc1Cl', 'inactive'),
  ('CN[C@@H]1C[C@H]2O[C@@](C)([C@@H]1OC)n1c3ccccc3c3c4c(c5c6ccccc6n2c5c31)C(=O)NC4', 'active'),
  ('CC1=CC2OC3CC(O)[C@](C)([C@@]2(C)C(O)C1=O)[C@]31CO1 (some centres not stated)', 'active'),
  ('C[C@@H]1O[C@@H](OC2CCC3(C=O)C(CCC4C3CCC3(C)C(C5=CC(=O)OC5)C(O)CC43O)C2)[C@H](O)[C@H](O)[C@H]1O[C@@H]1O[C@H](CO)[C@@H](O)[C@H](O)[C@H]1O (some centres not stated)', 'active'),
  ('CO/C1=C\C(C)=C\[C@@H](C)[C@@H](O)[C@@H](C)C/C(C)=C/C=C/[C@H](OC)[C@@H]([C@@H](C)[C@@H](O)[C@H](C)[C@@]2(O)C[C@@H](O)[C@H](C)[C@@H](C(C)C)O2)OC1=O', 'active'),
  ('CCCCCn1cc(C(=O)C2C(C)(C)C2(C)C)c2ccccc21', 'inactive'),
  ('CC(=O)OC[C@]12C[C@H](OC(=O)CC(C)C)C(C)=C[C@H]1O[C@@H]1[C@H](O)[C@@H](OC(C)=O)[C@@]2(C)[C@@]12CO2', 'active'),
  ('C[C@]12CC[C@@H](O)C[C@@H]1CC[C@@H]1[C@@H]2CC[C@]2(C)C(=O)[C@@H](Br)C[C@@H]12', 'active'),
  ('CC1=CC(=O)[C@@H](O)[C@@]2(C)C1C[C@H]1OC(=O)[C@H](O)[C@@]3(O)[C@@H](C)[C@@H](O)[C@H](O)C2[C@@]13C (some centres not stated)', 'active'),
  ('CCOC(=O)Nc1ccc(NCc2c(C)cc(C)cc2C)cc1N', 'active'),
  ('O=C1Nc2ccc3ncsc3c2/C1=C/c1cnc[nH]1', 'active'),
  ('C#C[C@]1(O)CC[C@H]2[C@@H]3CC[C@H]4Cc5nc6nc7ccccc7n6cc5C[C@]4(C)[C@H]3CC[C@@]21C', 'active'),
  ('COC(=O)CC1CC2(C(=O)c3c(O)cccc3C2(O)C(=O)OC)C(C)O1 (configuration not stated)', 'inactive'),
  ('O=C1CN=C(c2ccccc2Cl)c2cc(Br)ccc2N1', 'active'),
  ('C[C@@H]1C[C@@H](O)[C@]2(O)O[C@@H]3C[C@@]4(C=O)C(CC[C@@H]5C4CC[C@]4(C)[C@@H](C6=CC(=O)OC6)CC[C@]54O)C[C@H]3O[C@@H]2O1 (some centres not stated)', 'active'),
  ('COC1C=CC23c4cc5c(cc4COC2(O)CN(C)C3C1)OCO5 (configuration not stated)', 'inactive'),
  ('CC1=CC2/C=C(\C)CCC(O)C(O)/C=C/C(=O)C23C(=O)NC(CC(C)C)C3C1C (configuration not stated)', 'active'),
  ('CCOC(=O)c1ccc(-c2ccc(OC(=O)N(C)Cc3cccc(-c4ccncc4)c3)cc2)cc1', 'inactive'),
  ('C[C@]12CC[C@H](O)C[C@@H]1CC[C@@H]1[C@@H]2CC[C@]2(C)[C@@H](C3=CC(=O)OC3)CC[C@]12O', 'active'),
  ('CCC1C2CC3C4N(C)c5ccccc5C45CC(C2C5O)N3C1O (configuration not stated)', 'inactive'),
  ('COc1cc2c(cc1O)C1(C)CCC(O)C(C)(C)C1CC2=O (configuration not stated)', 'inactive'),
  ('CCC(C)(O)C1(C(=O)O)COC(=O)C1 (configuration not stated)', 'inactive'),
  ('CC[C@H]1C2CC3[C@@H]4N(C)c5ccccc5[C@]45C[C@@H]([C@H]2[C@H]5O)N3[C@H]1O', 'inactive'),
  ('CC(C)C(=O)O[C@H]1[C@@H]2[C@H](C)C(=O)O[C@@H]2C[C@@H](C)[C@@H]2C=CC(=O)[C@]21C', 'active'),
  ('CC(=O)N1N=C(c2ccc(N)cc2)c2cc3c(cc2C[C@H]1C)OCO3', 'inactive'),
  ('CC1=CC2/C=C(\C)CCC(O)C(O)C(O)CC(=O)C23C(=O)NC(CC(C)C)C3C1C (configuration not stated)', 'active'),
  ('CC(C)(O)/C=C/C(=O)[C@](C)(O)[C@H]1[C@H](O)C[C@@]2(C)[C@@H]3CC=C4[C@@H](C=C(O)C(=O)C4(C)C)[C@]3(C)C(=O)C[C@]12C', 'active');

Origin of the recorded values: PubChem BioAssay (NCATS)
